B1: Membrane-associated guanylate kinase, WW and PDZ domain-containing protein 2, residues 601 to 682; numbered along this chain, Q86UL8 (parent)
chain: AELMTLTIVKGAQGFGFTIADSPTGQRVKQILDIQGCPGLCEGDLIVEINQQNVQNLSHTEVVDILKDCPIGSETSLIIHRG

Variants of: B1
Assay: abundance fitness (aPCA) (normalised: wild type 0, dead -1); higher = more abundant; growth selection in yeast, the domain comes from the species named
Details: Homo sapiens
measurement-type: abundance fitness
Give only the figure.

Known abundance fitness results, listed for orientation:
* Q52A | -0.037
* D33P | -0.147
* I49P | -1.01

--- query ---
[in] Which abundance fitness is listed for E48T ?
[out] -0.226
